Reported values of melting point for individual entries

{"compound": "CCOc1ccc(OCCCN2CCN(c3ccc(Cl)nn3)CC2)cc1 [Example 1]", "melting point": "125 to 127 °C"}
{"compound": "COC(=O)c1ccc(OCCCN2CCN(c3ccc(Cl)nn3)CC2)cc1 [Example 5]", "melting point": "128 to 130 °C"}

Query: // fetch melting point given entry Cc1ccc(OCCCN2CCN(c3ccc(Cl)nn3)CC2)cc1 [Example 2]
Result: 129 to 131 °C

Query: // fetch melting point given entry CCc1ccc(OCCCN2CCN(c3ccc(Cl)nn3)CC2)cc1 [Example 3]
Result: 123 to 125 °C

Query: // fetch melting point given entry CC(C)c1ccc(OCCCN2CCN(c3ccc(Cl)nn3)CC2)cc1 [Example 4]
Result: 125 to 127 °C

Query: // fetch melting point given entry CCOC(=O)c1ccc(OCCCN2CCN(c3ccc(Cl)nn3)CC2)cc1 [Example 6]
Result: 125 to 127 °C
